target: 5-hydroxytryptamine receptor 1D (Homo sapiens, UniProt P28221)
Sequence (P28221 whole entry): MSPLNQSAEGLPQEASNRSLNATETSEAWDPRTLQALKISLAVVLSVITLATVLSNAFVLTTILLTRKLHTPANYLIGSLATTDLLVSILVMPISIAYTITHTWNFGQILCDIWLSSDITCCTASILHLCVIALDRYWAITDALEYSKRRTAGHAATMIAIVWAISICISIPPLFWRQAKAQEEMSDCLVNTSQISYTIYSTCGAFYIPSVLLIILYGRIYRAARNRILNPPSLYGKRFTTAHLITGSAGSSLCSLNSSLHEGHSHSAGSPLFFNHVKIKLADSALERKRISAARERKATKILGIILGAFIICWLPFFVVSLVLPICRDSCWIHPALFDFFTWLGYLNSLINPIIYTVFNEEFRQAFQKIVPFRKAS
experimental readout: pKi
Quick note: pKi values are minus log10 of concentrations in mol/L.

Q: Retrieve pKi measured for "C[C@H](N)Cn1ncc2ccc(O)cc21" and print it.
Result: 5.10

---

system: MDR1 (P-gp); assay: in vitro; details: human, MDCK-MDR1
Description: Ratio of permeability from basolateral to apical over apical to basolateral side of the MDCK cell transfected with human MDR1
experimental readout: efflux ratio

smiles record: C[C@H](N)Cn1ncc2ccc(O)c(Cl)c21
system: MDR1 (P-gp)
experimental readout: efflux ratio
reported: 3

Q: Retrieve efflux ratio measured for "C[C@H](N)Cn1ncc2ccc(O)c(F)c21" and print it.
Result: 1.5

---

target: 5-hydroxytryptamine receptor 2A (Rattus norvegicus); assay: Activity against 5HT2A mediated intracellular calcium mobilization by FLIPR in rat vascular smooth muscle cells; format: functional, cell-based
experimental readout: Emax (%)
The figure you give is taken to be in %; do not add the unit.

compound: C[C@H](N)Cn1ncc2ccc(O)c(I)c21
Emax (%): 73
--
compound: COc1cc(C[C@@H](C)N)c(OC)cc1I
Emax (%): 35
--
compound: C[C@@H](N)Cn1ncc2ccc(O)cc21
Emax (%): 61
--
compound: COc1ccc2[nH]cc(CCN(C)C)c2c1
Emax (%): 70

Please turn your attention to the following entry.
Q: Retrieve Emax measured for COc1ccc2[nH]cc(CC(C)N)c2c1 (stereo not drawn) and print it.
Result: 96
